Data provenance: patent US20230272056A1

# test system: T1, human LAP-TGFB1 Fc fusion (human)
# T1 construct: also called human LAP-TGFβ1-Fc; human LAP-TGFβ-Fc isoform 1
# T1 sequence (chain, as listed by the source limits assumed): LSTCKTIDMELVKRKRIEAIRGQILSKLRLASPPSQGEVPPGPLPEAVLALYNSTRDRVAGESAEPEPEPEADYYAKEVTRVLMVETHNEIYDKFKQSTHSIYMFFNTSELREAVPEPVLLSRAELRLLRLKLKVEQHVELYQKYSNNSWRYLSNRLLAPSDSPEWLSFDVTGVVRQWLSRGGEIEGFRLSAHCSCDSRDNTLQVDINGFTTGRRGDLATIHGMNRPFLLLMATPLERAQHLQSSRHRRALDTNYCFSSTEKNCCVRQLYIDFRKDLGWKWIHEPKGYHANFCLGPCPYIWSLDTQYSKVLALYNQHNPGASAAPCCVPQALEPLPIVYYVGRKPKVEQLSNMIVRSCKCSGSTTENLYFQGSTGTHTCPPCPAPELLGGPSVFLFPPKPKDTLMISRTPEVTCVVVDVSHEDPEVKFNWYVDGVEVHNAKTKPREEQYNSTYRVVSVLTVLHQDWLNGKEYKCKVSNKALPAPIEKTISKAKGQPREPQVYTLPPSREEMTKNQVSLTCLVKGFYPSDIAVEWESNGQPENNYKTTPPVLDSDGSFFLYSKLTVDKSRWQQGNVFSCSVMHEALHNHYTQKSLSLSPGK
# test: BLI off-rate screen
Provide the reported koff of each item.
Numbers only, in s⁻¹.

Sample answers from the record:
[
  {
    "binder": "VL L94Q (33BIT) (Fab, V domains shown, Heavy chain: parental 20E6 Fab HC, implied) VH: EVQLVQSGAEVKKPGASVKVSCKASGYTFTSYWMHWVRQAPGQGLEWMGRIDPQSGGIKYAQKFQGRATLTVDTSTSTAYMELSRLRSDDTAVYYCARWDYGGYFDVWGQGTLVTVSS VL: DIQMTQSPSSLSASVGDRVTITCRASQDITNYLNWYQQKPGKAVKLLIYYTSRLHSGVPSRFSGSGSGTDYTLTISSLQPEDFATYFCQQGDTQPWTFGQGTKLEIKR",
    "unit symbol": "s⁻¹",
    "koff": 0.0583
  },
  {
    "binder": "VH S55E (26BIT) (Fab, V domains shown, Light chain: parental 20E6 LC, implied) VH: EVQLVQSGAEVKKPGASVKVSCKASGYTFTSYWMHWVRQAPGQGLEWMGRIDPQEGGIKYAQKFQGRATLTVDTSTSTAYMELSRLRSDDTAVYYCARWDYGGYFDVWGQGTLVTVSS VL: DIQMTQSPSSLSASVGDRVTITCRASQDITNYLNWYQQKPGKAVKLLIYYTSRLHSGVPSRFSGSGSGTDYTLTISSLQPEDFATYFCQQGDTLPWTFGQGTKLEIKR",
    "unit symbol": "s⁻¹",
    "koff": 0.0519
  }
]

Now for the binder whose koff we want.
(Q) koff lookup needed for VH G102S (29BIT) (Fab, V domains shown, Light chain: parental 20E6 LC, implied) VH: EVQLVQSGAEVKKPGASVKVSCKASGYTFTSYWMHWVRQAPGQGLEWMGRIDPQSGGIKYAQKFQGRATLTVDTSTSTAYMELSRLRSDDTAVYYCARWDYSGYFDVWGQGTLVTVSS VL: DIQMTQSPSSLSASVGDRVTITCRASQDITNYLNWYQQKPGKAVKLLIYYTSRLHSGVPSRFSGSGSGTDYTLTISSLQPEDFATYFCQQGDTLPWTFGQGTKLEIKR , thanks.
(A) 0.0845
